System: COLO 205 colon
Assay: NCI tumour cell line growth inhibition, 48 h
Experimental endpoint: TGI

Consider the following illustrative entries.
O=c1oc2ccccc2c2nc3ccccc3cc12	> 100 µM
C=CCOc1c(Br)cc(Br)cc1Br	56.9 µM
c1cc[c]([Sn]([S]c2cccc3cccnc23)([c]2ccccc2)[c]2ccccc2)cc1	0.0352 µM
COC(=O)/C(=N\NC(=S)NN)C(C(=O)C(=O)Nc1ccccc1C(N)=O)c1nc2ccccc2[nH]c1=O (stereo not drawn)	> 100 µM
O=c1c2ccccc2c2c3c1cccc3c1cccc3c(=O)c4ccccc4c2c31	> 100 µM

State the recorded TGI for every item in the following list.
1. CCC1(CC)C(=O)NC(=S)N=C1N
2. Cc1ncc([N+](=O)[O-])n1CCNC(=O)CCCCn1ccnc1[N+](=O)[O-]
3. OCC1OC(O[C@H]2CN3[C@H](O)[C@@H](O)[C@H](O)[C@H]3C2O)C(O)C(O)C1O (stereo partly drawn)
4. CC/C=C\C/C=C\C1CC(=O)NCCCNCCCCN1 (stereo not drawn)
5. NNC(=O)c1cccc2c1Oc1ccccc1S2
6. COc1ccc(C(=O)C(C(=O)CCC(=O)Nc2cccc(C(F)(F)F)c2)c2ccccc2)cc1 (stereo not drawn)

Response:
1. > 100 µM
2. > 100 µM
3. > 100 µM
4. > 100 µM
5. > 100 µM
6. > 100 µM

Below are 2 compounds. Give each one its TGI.
1. CC1(C)OC(=O)C=C([O-])O1.CC1(C)OC(=O)C=C([O-])O1.O=c1c(O)c(-c2ccc([O-])cc2[O-])oc2cc(O)cc(O)c12.[Ti+4]
2. COP(=O)(CC(=O)C1OC(OCc2ccccc2)C(OCc2ccccc2)C(OCc2ccccc2)C1OCc1ccccc1)OC (stereo not drawn)

Response:
["> 100 µM", "15 µM"]

====

System: LOX IMVI melanoma
Assay: NCI tumour cell line growth inhibition, 48 h; in the data active = GI50 below about 0.43 µM; inactive = the rest
API: response.call in active, inactive

Before answering, review these 5 worked examples.
CCCNCc1cc(C)cc2c1nc(N1CCNCC1)n2Cc1cc(C)c(F)c(C)c1	inactive
CC1=C(C)C(=O)O[C@@H]([C@](C)(O)[C@]2(O)CC[C@@]3(O)[C@@H]4C[C@H]5O[C@]56CC=CC(=O)[C@]6(C)[C@H]4CC[C@]23C)C1	active
O=C(N/N=C/c1ccc(Cl)cc1Cl)c1ccccc1Nc1cccc(C(F)(F)F)c1	inactive
COc1ccc(C2C(C#N)=C(N)OC3=C2CCCc2ccc(F)cc23)cc1OC (centres undefined)	inactive
C=CC(=O)N1CCN(c2ncnc3c(F)c(-c4c(O)cccc4F)c(Cl)cc23)CC1	inactive

Request: For `Cc1c(C(=O)NN)nnn1-c1ccnc2c(C(F)(F)F)cccc12` , which call appears in the assay record?
Response: inactive

Request: Could you kindly confirm the outcome this assay logged for COc1cc(/C=C2\CC3C4CC=C5CC(N6CCCC6)CC[C@]5(C)C4CC[C@]3(C)C2OC(C)=O)ccc1OCCN1CCCC1 (some centres undefined) ?
Response: inactive

Request: Could you check what this test reported for `COc1ccc(NC2=C(Br)C(=O)C(C)=C(C)C2=O)cc1` ?
Response: inactive

Request: Can you look up the reported call for `Cc1sc(C)c(-c2ccc(CO)o2)c1-c1ccc(CO)o1` for me?
Response: inactive
